// provenance: the supplement of paper PMC10724198

test system: Saccharomyces cerevisiae; experiment: protein stability index of tFT-peptide fusion (C-terminal peptide) (PSI (0-1 scale)); higher = more stable (slower turnover); details: genetic background: das1 deletion; temperature: 37 C;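 also: PSI is a weighted mean of sequencing reads over stability bins, variants kept only with over 10 reads, mCherry proximal and sfGFP distal, peptide attached via GGGS linker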
So I've got a bunch of sequences here, and I need their protein stability index values.
One number for each entry.

Solved entries:
SELLVHVVFWLA
0.463
GAVRRWGGVSFV
0.707

Next sequence, protein stability index to be filled in.
QUERY: Name the recorded protein stability index for "FPCRNFMVFFCF" .
RESULT: 0.505

* * *

test system: Saccharomyces cerevisiae; assay: protein stability index of tFT-peptide fusion (C-terminal peptide) (PSI (0-1 scale)); higher = more stable (slower turnover); conditions: genetic background: wild type; temperature: 30 C
MEASUREMENT TYPE: protein stability index
Answers are plain numbers.

Solved entries:
VIEWFVRGRGGG
0.693
REEMASGGCIIR
0.684
HGCRLCFISSWL
0.663
GEALSFIFVSPP
0.722

QUERY: Recorded protein stability index for "GTWEGDTSACAR" with Saccharomyces cerevisiae, please?
RESULT: 0.636
